# experimental.system: T1, hRGMa-His (human, UniProt Q96B86 48-422, limits assumed)
# T1 construct: also called human RGMa (BIAcore); not shown: His tag
# T1 sequence: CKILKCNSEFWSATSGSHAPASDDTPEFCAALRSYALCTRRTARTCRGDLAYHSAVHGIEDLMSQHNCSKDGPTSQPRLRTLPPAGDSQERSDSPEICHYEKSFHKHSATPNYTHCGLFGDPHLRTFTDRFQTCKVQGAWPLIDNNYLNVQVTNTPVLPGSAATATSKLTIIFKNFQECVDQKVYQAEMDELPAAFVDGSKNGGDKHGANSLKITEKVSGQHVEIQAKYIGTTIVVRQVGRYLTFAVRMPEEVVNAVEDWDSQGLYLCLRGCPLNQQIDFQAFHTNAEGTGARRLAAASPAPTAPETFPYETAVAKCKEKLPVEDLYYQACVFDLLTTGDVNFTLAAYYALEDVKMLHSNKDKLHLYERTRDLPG
# experiment.description: BIAcore
readout.type: kon (M⁻¹ s⁻¹)
Form entry: value (M⁻¹ s⁻¹) — number only.

For the binder AE12-1-V (antibody, V domains shown, AE12-1 variant; read as AE12-1-V from the order of the variants; IgG) VH: EVQLVQSGAEVKKPGASVKVSCKASGYTFTSHGISWVRQAPGQGLDWMGWISPYSGNTNYAQKLQGRVTMTTDTSTSTAYMELSSLRSEDTAVYYCARVGSGPYYYMDVWGQGTLVTVSS VL: QSALTQPRSVSGSPGQSVTISCTGTSSSVGDSIYVSWYQQHPGKAPKLMLYDVTKRPSGVPDRFSGSKSGNTASLTISGLQAEDEADYYCVSYAGTDTLFGGGTKVTVL , what kon is on record?
25000

For the binder AE12-1-K (antibody, V domains shown, AE12-1 variant; IgG) VH: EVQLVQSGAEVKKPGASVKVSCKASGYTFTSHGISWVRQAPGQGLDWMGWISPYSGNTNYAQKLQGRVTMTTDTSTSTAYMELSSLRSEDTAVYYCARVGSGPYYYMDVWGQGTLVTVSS VL: QSALTQPRSVSGSPGQSVTISCTGTSSSVGDSIYVSWYQQHPGKAPKLMLYDVTKRPSGVPDRFSGSKSGNTASLTISGLQAEDEADYYCKSYAGTDTLFGGGTKVTVL , what kon is on record?
34000

The record that follows has no kon shown yet.
For the binder AE12-1-H (antibody, V domains shown, AE12-1 variant; IgG) VH: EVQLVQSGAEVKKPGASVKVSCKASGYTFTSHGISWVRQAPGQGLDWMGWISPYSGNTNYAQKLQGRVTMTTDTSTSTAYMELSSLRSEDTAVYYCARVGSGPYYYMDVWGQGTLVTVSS VL: QSALTQPRSVSGSPGQSVTISCTGTSSSVGDSIYVSWYQQHPGKAPKLMLYDVTKRPSGVPDRFSGSKSGNTASLTISGLQAEDEADYYCHSYAGTDTLFGGGTKVTVL , what kon is on record?
32000

Source listed as patent US20160326240A1.
